Source listed as PubChem BioAssay AID256.

Test system: CD2F1 mice, L1210 leukemia ip, survival T/C
experimentalProtocol: NCI In Vivo Anticancer Drug Screen. Data for tumor model L1210 Leukemia (intraperitoneal) in CD2F1 (CDF1) mice
runParameters: endpoint: mean survival time; dose: 400.0 mg/kg/injection; schedule: Q01DX001 (ip); vehicle: Klucel (hydroxypropylcellulose) (HPC); higher = longer survival
Description: The antitumor activity of compounds was measured in mice bearing transplantable tumors. Survival or tumor size were measured and the results are expressed as the measurement made in the treated group (T) divided by the measurement made in the vehicle treated control group (C). The tumor model used in this assay is L1210 Leukemia (intraperitoneal) in CD2F1 (CDF1) mice
Toxic doses and inconclusive results are not listed.
readoutType: T/C

Guide cases for T/C, answers given:
I would be grateful if you could share the reported T/C for "O=C(COc1ccccc1)Nc1ccc(Br)cc1" .
105 % of control

Entry under review: COc1cccc(NC(=S)NC(Cc2ccccc2)c2ccccc2)c1 (stereo not given) . Reported T/C?
96 % of control

Data request, read-out T/C, for "Cc1cc(Cl)ccc1N=Cc1ccc2c(c1)OCO2"
95 % of control

Provide the reported T/C of each entry below, same order.
1. O=S(=O)(O)c1cccc2ncccc12
2. CCCCCCCCCCCCCOc1ccc2ccccc2c1

["95 % of control", "87 % of control"]
